Where do the numbers come from? From patent US6653290B2.

# assayed system: purified human topoisomerase I (Homo sapiens, UniProt P11387)
# Sequence (P11387 1-765): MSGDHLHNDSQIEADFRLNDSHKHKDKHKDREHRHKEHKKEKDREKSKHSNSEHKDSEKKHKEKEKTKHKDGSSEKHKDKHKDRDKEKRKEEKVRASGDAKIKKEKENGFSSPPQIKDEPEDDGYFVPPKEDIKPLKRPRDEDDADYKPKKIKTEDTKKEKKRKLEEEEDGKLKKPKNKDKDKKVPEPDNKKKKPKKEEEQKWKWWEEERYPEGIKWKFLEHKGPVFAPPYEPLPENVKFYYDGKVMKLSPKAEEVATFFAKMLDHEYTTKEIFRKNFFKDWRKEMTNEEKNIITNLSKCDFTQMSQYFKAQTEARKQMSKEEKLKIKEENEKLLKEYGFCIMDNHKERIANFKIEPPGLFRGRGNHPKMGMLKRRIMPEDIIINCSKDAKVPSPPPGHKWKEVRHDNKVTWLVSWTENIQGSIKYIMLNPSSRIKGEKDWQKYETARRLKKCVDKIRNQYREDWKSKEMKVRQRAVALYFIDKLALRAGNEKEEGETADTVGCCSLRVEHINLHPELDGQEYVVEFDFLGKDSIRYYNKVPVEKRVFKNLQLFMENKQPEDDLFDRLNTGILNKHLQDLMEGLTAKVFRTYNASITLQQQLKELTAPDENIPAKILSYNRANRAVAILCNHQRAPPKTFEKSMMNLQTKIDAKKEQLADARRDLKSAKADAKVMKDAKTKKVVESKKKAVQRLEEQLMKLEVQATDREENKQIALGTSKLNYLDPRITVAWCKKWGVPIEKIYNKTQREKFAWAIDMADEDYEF
# assay: Topoisomerase I activity (in vitro): compound-induced, topoisomerase I-mediated single strand breaks in PM2 DNA
# test settings: purified human topoisomerase I (Topogen), 30 minutes at 37° C., read-out: EC50 (median effective concentration for inducing topoisomerase I-mediated single strand breaks in DNA)
measured metric: pEC50
// pEC50 here means minus log10 of the molar concentration (mol/L)

q: // map CO[C@]1(CO)O[C@@H](n2c3cc(F)c(F)cc3c3c4c(c5c6cc(F)c(F)cc6[nH]c5c32)C(=O)NC4=O)[C@H](O)[C@@H](O)[C@@H]1O to recorded pEC50 (system: purified human topoisomerase I (Homo sapiens, UniProt P11387))
a: 6.57

q: // map O=C1NC(=O)c2c1c1c3cc(F)c(F)cc3[nH]c1c1c2c2cc(F)c(F)cc2n1[C@@H]1OC(CO)(CO)C[C@H](O)[C@H]1O to recorded pEC50 (system: purified human topoisomerase I (Homo sapiens, UniProt P11387))
a: 7.40

q: // map CO[C@@]1(CO)C[C@H](O)[C@@H](O)[C@H](n2c3cc(F)c(F)cc3c3c4c(c5c6cc(F)c(F)cc6[nH]c5c32)C(=O)NC4=O)O1 to recorded pEC50 (system: purified human topoisomerase I (Homo sapiens, UniProt P11387))
a: 7.30

// below: pEC50 requested for another molecule
q: // map CO[C@@]1(C)C[C@H](O)[C@@H](O)[C@H](n2c3cc(F)c(F)cc3c3c4c(c5c6cc(F)c(F)cc6[nH]c5c32)C(=O)NC4=O)O1 to recorded pEC50 (system: purified human topoisomerase I (Homo sapiens, UniProt P11387))
a: 7.15
